MEASUREMENT_PROTOCOL: yeast display, Sf9 membrane polyspecificity reagent, FACS + sequencing; frameworks hold sequencing errors
READOUT: polyreactivity (PSR sort gate)

>  <SEQUENCE_CODE>
QVQLVESGGGLVQAGGSLRLSCAASGRIFKYYAMGWYRQAPGKERELVAAISGTGGGTYYADSVKGRFTISRDNAKNTVYLQMNSLKPEDTAVYYCAALHQAYRGFDYWGQGTQVSVSS

>  <polyreactivity (PSR sort gate)>
high polyreactivity

$$$$
>  <SEQUENCE_CODE>
QVQLVESGGGLVQAGGSLRLSCAASGRTFYFYAMGWYRQAPGKERELVASISWSGGRTYYADSVKGRFTISRDNAKNTVYLQMNSLKPEVTSVYYSAAALWTGYSWGQATQVTVSS

>  <polyreactivity (PSR sort gate)>
low polyreactivity

$$$$
>  <SEQUENCE_CODE>
QVQLVESGAGLVQAGGSLRLSCAASGITFASYAMGWYRQAPGKERELVAAITWGGSRTYYADSVKGRFTISRDNAKNSVYLQMNSLKPEDTAVYYCNAHTRYGPDYSYYYWGQGSQVTVSS

>  <polyreactivity (PSR sort gate)>
high polyreactivity

$$$$
>  <SEQUENCE_CODE>
QVQLVESGGGLVQAGGSLRLSCAASGRILYYYDMGWYRQAPGKERELVARIGGTYYADSVKGRFTISRDNAKNTVYLQMNSLKPEDTAVYYCAAEYGYDFFRSYQEYGYWGQGTQVTVSS

>  <polyreactivity (PSR sort gate)>
low polyreactivity

$$$$
>  <SEQUENCE_CODE>
QVQLVESVGGLVQAGRILRISCAASGFTLYYYDKGWYRQAPGKQRELVAGISSGDSTYYADSLKGRFTISRDNAKNTVYLHMNSLKPEDTAVYYCATGDSLYYRYWSNNYWGQGTQVTVSS

>  <polyreactivity (PSR sort gate)>
high polyreactivity

$$$$

Read the next record carefully.
Task: Which polyreactivity (PSR sort gate) is reported for this sequence? "QVQLVESGGGLVQAGGSLRLSCDASGSTLVVNAMGWYRPAPGKERELVAAISDGGSTNYADSVKGRFTISRDNAMNTVYLQMNSLKPEDTADYYCAKDCETEVIDDYWGQGTQVTVSS"
Output: low polyreactivity

----------
MEASUREMENT_PROTOCOL: yeast display, Sf9 membrane polyspecificity reagent, FACS + sequencing; frameworks hold sequencing errors

>  <SEQUENCE_CODE>
QVQLVESGGGLVQAGGSLRLSCAASGFTFYGYTMGWYRQAPGKERELVAAINKSGSSTYYADSEKGRFTISRDNAKNTVYLQMNSLKPEDTAVYYCNAYYRKVLGYDKMDYWGQGTQVTVSS

>  <polyreactivity (PSR sort gate)>
high polyreactivity

$$$$
>  <SEQUENCE_CODE>
QVQLVESGGGLVQAGCSRRLSCAASGSIFYHNAMGWYRQAPGKERELVAAISGRGGSTYYADSVKGRFTISRDNAKNTVYLQMNSLKPEDTAVYYCAADARYQNGGLYYWGQGPQVTVSS

>  <polyreactivity (PSR sort gate)>
high polyreactivity

$$$$

----------
MEASUREMENT_PROTOCOL: yeast display, Sf9 membrane polyspecificity reagent, FACS + sequencing; frameworks hold sequencing errors

>  <SEQUENCE_CODE>
QVQLVESGGGLVQAAGILRLSCAASGFIVVRNAMGWYRQAPGKERELVAAISAIGSSTYYADSVKGRFTISRDNAKNTVYLQLNSLKPEDTAVYYCAASGSRVSERSPTRLDYYCGQGTQVTVSS

>  <polyreactivity (PSR sort gate)>
high polyreactivity

$$$$
>  <SEQUENCE_CODE>
QVQLVESGGGLVQAGGSLRLSCAASGITFTGNAMGWYRQAPGKERELVAAISNRGGSTYYADSVKGRFTISRDNAKNTVYLQMNSLKPEDTAVYYCRTSTPRRVSGNYWGQGTQVTVTS

>  <polyreactivity (PSR sort gate)>
high polyreactivity

$$$$

These entries and their values trace back to the nanobody polyreactivity screen of Harvey et al. (2022).
